Record form. Attribute: IC50. Fill in for each entry.
A complete answer gives the number and then names the unit.

IN: Using UniProtKB Q9Y6E0 as the test system, report measured IC50 of `COc1cc(Nc2c(C#N)cnc3cc(OCCCN4CCN(C)CC4)c(OC)cc23)c(Cl)cc1Cl` .
Sequence (Q9Y6E0 1-431 isoform Q9Y6E0-2): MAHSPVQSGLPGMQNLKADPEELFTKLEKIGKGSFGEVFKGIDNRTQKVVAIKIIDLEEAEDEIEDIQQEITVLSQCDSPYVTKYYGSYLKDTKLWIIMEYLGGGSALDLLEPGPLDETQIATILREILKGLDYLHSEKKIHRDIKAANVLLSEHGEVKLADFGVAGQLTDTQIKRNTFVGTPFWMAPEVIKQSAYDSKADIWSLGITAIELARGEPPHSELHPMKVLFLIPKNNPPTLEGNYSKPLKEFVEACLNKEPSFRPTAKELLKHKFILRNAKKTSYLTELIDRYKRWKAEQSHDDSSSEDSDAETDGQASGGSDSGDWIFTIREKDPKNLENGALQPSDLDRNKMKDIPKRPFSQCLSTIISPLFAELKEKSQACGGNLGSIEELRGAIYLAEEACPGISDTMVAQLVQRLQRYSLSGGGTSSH
OUT: 3 nM

IN: Enter measured IC50, system UniProtKB Q9Y6E0, for the compound shown: `COCCOc1ccc2c(c1)ncn2-c1ccc2cccc(N3CCC(N)CC3)c2n1`
OUT: 260 nM
